system: polypeptide having β-fructofuranosidase activity; assay: Specificity for fructofuranosyl transfer from sucrose to acceptors (TLC); assay type: biochemical, Bacillus sp. V230; design: key: Compared with a reaction mixture of sucrose, “−” means unchanged; +: the size and color of a spot for fructofuranosyl acceptor reduced slightly, and spot for fructofuransyl-transferred product was slightly detected; ++: the size and color of a spot for fructofuranosyl acceptor more reduced and a spot for fructofuransyl transferred product was clearly observed; conditions: acceptor and sucrose (donor) in equal weight, 10 w/v %, 2 units/g sucrose of polypeptide of Example 2-1, 40° C., pH 5.5, 24 hours
QUANTITY_KIND: Formation of fructofuranosyl-transferred product

| COMPOUND | REPORTED |
| --- | --- |
| OC[C@H]1O[C@H](OC[C@H]2OC(O)(CO)[C@@H](O)[C@@H]2O)[C@H](O)[C@@H](O)[C@@H]1O (stereo partly drawn) [Palatinose] | + |
| O=C(CO)[C@@H](O)[C@H](O)[C@H](O)CO [D-Fructose] | + |
| CCC(C)O (stereo not drawn) [2-Butanol] | − |
| O=C[C@@H](O)[C@@H](O)[C@H](O)[C@H](O)CO [D-Mannose] | + |
| O=C(CO)[C@@H](O)[C@H](O)[C@@H](O)CO [L-Sorbose] | + |

[Q] I'd like to know its Formation of fructofuranosyl-transferred product. The compound in question is OC[C@H]1O[C@H](O[C@H]2[C@H](O)[C@@H](O)[C@H](O)O[C@@H]2CO)[C@H](O)[C@@H](O)[C@@H]1O [Maltose]
[A] ++

[Q] I'd like to know its Formation of fructofuranosyl-transferred product. The compound in question is O=C(CO)[C@@H](O[C@H]1O[C@H](CO)[C@@H](O)[C@H](O)[C@H]1O)[C@H](O)[C@H](O)CO [Turanose]
[A] +

[Q] I'd like to know its Formation of fructofuranosyl-transferred product. The compound in question is OC[C@@H](O)[C@H](O)[C@@H](O)CO [D-Xylitol]
[A] ++

[Q] I'd like to know its Formation of fructofuranosyl-transferred product. The compound in question is CCO [Ethanol]
[A] +

* * *

system: polypeptide having β-fructofuranosidase activity; test: Specificity for fructofuranosyl transfer from sucrose to acceptors (TLC); assay type: biochemical, Bacillus sp. V230; design: key: Compared with a reaction mixture of sucrose, “−” means unchanged; +: the size and color of a spot for fructofuranosyl acceptor reduced slightly, and spot for fructofuransyl-transferred product was slightly detected; ++: the size and color of a spot for fructofuranosyl acceptor more reduced and a spot for fructofuransyl transferred product was clearly observed; settings: acceptor and sucrose (donor) in equal weight, 10 w/v %, 2 units/g sucrose of polypeptide of Example 2-1, 40° C., pH 5.5, 24 hours
QUANTITY_KIND: Formation of fructofuranosyl-transferred product

Study these solved cases before continuing.
| MOLECULE | REPORTED |
| --- | --- |
| OC[C@H]1O[C@H](OC[C@H]2O[C@H](O[C@]3(CO)O[C@H](CO)[C@@H](O)[C@@H]3O)[C@H](O)[C@@H](O)[C@@H]2O)[C@H](O)[C@@H](O)[C@H]1O | + |
| O=C[C@H](O)[C@@H](O)[C@H](O)CO | ++ |
| OC[C@H]1O[C@@H](O[C@H]2O[C@H](CO)[C@@H](O)[C@H](O)[C@H]2O)[C@H](O)[C@@H](O)[C@@H]1O | + |
| CCCCO | − |
| OCCO | ++ |
| O=C[C@H](O)[C@@H](O)[C@@H](O)CO | + |
| CCCO | − |
| OC[C@@H](O)[C@@H](O[C@H]1O[C@H](CO)[C@@H](O)[C@H](O)[C@H]1O)[C@H](O)[C@@H](O)CO | ++ |
| CO | + |
| CC(C)O | − |

[Q] I'd like to know its Formation of fructofuranosyl-transferred product. The molecule in question is "C[C@H](O)[C@H](O)[C@@H](O)[C@@H](O)C=O"
[A] +

[Q] I'd like to know its Formation of fructofuranosyl-transferred product. The molecule in question is "OCC(O)CO"
[A] ++

* * *

system: polypeptide having β-fructofuranosidase activity; experiment: Specificity for fructofuranosyl transfer from sucrose to acceptors (TLC); assay type: biochemical, Bacillus sp. V230; design: key: Compared with a reaction mixture of sucrose, “−” means unchanged; +: the size and color of a spot for fructofuranosyl acceptor reduced slightly, and spot for fructofuransyl-transferred product was slightly detected; ++: the size and color of a spot for fructofuranosyl acceptor more reduced and a spot for fructofuransyl transferred product was clearly observed; conditions: acceptor and sucrose (donor) in equal weight, 10 w/v %, 2 units/g sucrose of polypeptide of Example 2-1, 40° C., pH 5.5, 24 hours
QUANTITY_KIND: Formation of fructofuranosyl-transferred product

| COMPOUND | REPORTED |
| --- | --- |
| OC[C@H]1O[C@H](O[C@H]2O[C@H](CO)[C@@H](O)[C@H](O)[C@H]2O)[C@H](O)[C@@H](O)[C@@H]1O | ++ |
| OC[C@H]1O[C@H](OCC2O[C@@H](O)[C@H](O)[C@@H](O)[C@@H]2O)[C@H](O)[C@@H](O)[C@H]1O (stereo partly drawn) | ++ |
| OC[C@H]1O[C@@H](O[C@H]2[C@H](O)[C@@H](O)C(O)O[C@@H]2CO)[C@H](O)[C@@H](O)[C@H]1O (stereo partly drawn) | ++ |

* * *

tested on: polypeptide having β-fructofuranosidase activity; test: Specificity for fructofuranosyl transfer from sucrose to acceptors (TLC); format: biochemical, Bacillus sp. V230; design: key: Compared with a reaction mixture of sucrose, “−” means unchanged; +: the size and color of a spot for fructofuranosyl acceptor reduced slightly, and spot for fructofuransyl-transferred product was slightly detected; ++: the size and color of a spot for fructofuranosyl acceptor more reduced and a spot for fructofuransyl transferred product was clearly observed; conditions: acceptor and sucrose (donor) in equal weight, 10 w/v %, 2 units/g sucrose of polypeptide of Example 2-1, 40° C., pH 5.5, 24 hours
QUANTITY_KIND: Formation of fructofuranosyl-transferred product

| MOLECULE | REPORTED |
| --- | --- |
| O=C[C@H](O)[C@@H](O)[C@H](O[C@@H]1O[C@H](CO)[C@@H](O)[C@H](O)[C@H]1O)[C@H](O)CO | ++ |
| OC[C@H]1O[C@H](OC[C@H]2O[C@H](O[C@H]3[C@H](O)[C@@H](O)C(O)O[C@@H]3CO)[C@H](O)[C@@H](O)[C@@H]2O)[C@H](O)[C@@H](O)[C@@H]1O (stereo partly drawn) | ++ |
| OC[C@@H](O)[C@@H](O)[C@H](O)[C@@H](O)CO | ++ |
| OC[C@H]1O[C@H](OC[C@H]2OC(O)[C@H](O)[C@@H](O)[C@@H]2O)[C@H](O)[C@@H](O)[C@@H]1O (stereo partly drawn) | ++ |
| OC[C@H]1O[C@H](O[C@H]2C(O)O[C@H](CO)[C@@H](O)[C@@H]2O)[C@H](O)[C@@H](O)[C@@H]1O (stereo partly drawn) | + |

[Q] I'd like to know its Formation of fructofuranosyl-transferred product. The molecule in question is "O=C[C@H](O)[C@@H](O)[C@@H](O)[C@H](O)CO"
[A] ++
